Ref: the supplement of paper PMC4466140

Please go through the items and note down their SPOT peptide array binding signal intensity.
Biological target: CaAbp1-D2
Assay: SPOT peptide array binding signal intensity (averaged, normalized) (arbitrary units (background-subtracted, floor 0; scale differs between SH3 domains)); higher = stronger binding of the SH3 domain to the peptide
Answer using only a numeral; do not append any unit.

The binder listed as `SHRLWLYAAPKRPKT` shows SPOT peptide array binding signal intensity equal to 37.5

The binder listed as `NTMKKRPAPPSLPSL` shows SPOT peptide array binding signal intensity equal to 892

The binder listed as `TKRKRPARLIFYDSK` shows SPOT peptide array binding signal intensity equal to 662

The binder listed as `AHFQPQRTAPKPPIS` shows SPOT peptide array binding signal intensity equal to 33.8

The binder listed as `TKFRISLGLPVGAIM` shows SPOT peptide array binding signal intensity equal to 134

The binder listed as `TTAPALPSLPPPPLL` shows SPOT peptide array binding signal intensity equal to 21

The binder listed as `YLTRPLPSTPNEDSR` shows SPOT peptide array binding signal intensity equal to 7

The binder listed as `GSKSGPPPRPKKPST` shows SPOT peptide array binding signal intensity equal to 189

The binder listed as `PELAPKREAPKPPAN` shows SPOT peptide array binding signal intensity equal to 3.5

The binder listed as `NSMRPPLLIPAATTK` shows SPOT peptide array binding signal intensity equal to 121

The binder listed as `RKNRAPPQRPRFNRE` shows SPOT peptide array binding signal intensity equal to 788

The binder listed as `NNNKMRPHLPPLSSG` shows SPOT peptide array binding signal intensity equal to 330

The binder listed as `SAPDIPPRSPNRNAH` shows SPOT peptide array binding signal intensity equal to 4.5

The binder listed as `RAPPPVPKKPSSRIA` shows SPOT peptide array binding signal intensity equal to 4330

The binder listed as `RSVKRPRRAPRPVVS` shows SPOT peptide array binding signal intensity equal to 430

The binder listed as `ISPPASPPPEFDFSK` shows SPOT peptide array binding signal intensity equal to 1.5

The binder listed as `QTMRQAPKRPDADVA` shows SPOT peptide array binding signal intensity equal to 292

The binder listed as `GKLKHIPRRPYEIER` shows SPOT peptide array binding signal intensity equal to 1

The binder listed as `AATTSTPPLPRRRAT` shows SPOT peptide array binding signal intensity equal to 229

The binder listed as `HPRFVSPRIPSRIVK` shows SPOT peptide array binding signal intensity equal to 83.5

The binder listed as `MARRRLPDRPPNGIG` shows SPOT peptide array binding signal intensity equal to 788
